Listed next: entries and their corresponding DC50.
- Measurement target: BRAF V600E (Homo sapiens, UniProt P15056, V600E)
- Construct: expressed in transfected cells
- Sequence (P15056 whole entry V600E): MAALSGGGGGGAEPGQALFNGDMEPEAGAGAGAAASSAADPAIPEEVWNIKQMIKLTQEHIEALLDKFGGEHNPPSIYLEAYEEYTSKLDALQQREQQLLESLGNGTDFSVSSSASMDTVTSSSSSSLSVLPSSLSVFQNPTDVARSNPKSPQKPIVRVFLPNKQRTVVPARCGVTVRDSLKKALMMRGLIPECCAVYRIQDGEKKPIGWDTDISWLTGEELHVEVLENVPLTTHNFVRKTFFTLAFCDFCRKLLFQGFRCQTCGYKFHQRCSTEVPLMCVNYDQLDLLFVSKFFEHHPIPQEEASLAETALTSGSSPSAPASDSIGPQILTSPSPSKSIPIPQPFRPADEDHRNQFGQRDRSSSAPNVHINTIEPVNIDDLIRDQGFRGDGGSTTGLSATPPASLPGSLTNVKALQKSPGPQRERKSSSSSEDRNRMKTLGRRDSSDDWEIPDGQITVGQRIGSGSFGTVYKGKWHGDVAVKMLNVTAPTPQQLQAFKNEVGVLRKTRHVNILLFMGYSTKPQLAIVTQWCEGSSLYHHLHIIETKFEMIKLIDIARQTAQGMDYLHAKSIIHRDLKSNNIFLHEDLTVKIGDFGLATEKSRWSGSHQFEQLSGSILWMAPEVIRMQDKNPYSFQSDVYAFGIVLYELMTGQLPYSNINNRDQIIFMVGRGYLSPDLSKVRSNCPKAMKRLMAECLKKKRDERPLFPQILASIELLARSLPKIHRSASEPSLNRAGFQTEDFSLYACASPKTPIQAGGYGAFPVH
- Test summary: Cellular assay of target protein degradation, T-Rex 293 cells stably transfected with HA-BRAF_V600E (HA immunofluorescence, high content imaging)
- Format: cell-based
- Experimental parameters: half maximal degradation, T-Rex 293 HA-BRAF V600E; read-out: BRaf V600E DC50
Measurement name: DC50

Compound	Measurement name	Observed measurement
O=C1CC[C@H](NC(=O)c2ccc(OCCCCN3CCN(c4ccc(-c5cnc6[nH]cc(C(=O)c7c(F)ccc(NS(=O)(=O)N8CC[C@@H](F)C8)c7F)c6c5)cc4)CC3)cc2F)C(=O)N1 [Compound 349]	DC50	> 500 nM
O=C1CCC(c2ccc(C3CCN(CC4CCN(c5ccc(-c6cnc7[nH]cc(C(=O)c8c(F)ccc(NS(=O)(=O)N9CC[C@@H](F)C9)c8F)c7c6)cc5)CC4)CC3)cc2F)C(=O)N1 (some centres unmarked) [Compound 168]	DC50	5 to 50 nM
O=C1CCC(N2Cc3cc(C4CCN(C[C@@H]5[C@H]6CN(c7ccc(-c8cnc9[nH]cc(C(=O)c%10c(F)ccc(NS(=O)(=O)N%11CC[C@@H](F)C%11)c%10F)c9c8)cc7)C[C@@H]56)CC4)ccc3C2=O)C(=O)N1 (some centres unmarked) [Compound 179]	DC50	5 to 50 nM
C[C@H]1CCCN1S(=O)(=O)Nc1ccc(F)c(C(=O)c2c[nH]c3ncc(-c4ccc(N5CCC(CN6CCC(c7ccc8c(c7)CN(C7CCC(=O)NC7=O)C8=O)CC6)CC5)cc4)cc23)c1F (some centres unmarked) [Compound 264]	DC50	5 to 50 nM
COc1ccc(NS(=O)(=O)N2CC[C@@H](F)C2)c(OC)c1C(=O)c1c[nH]c2ncc(-c3ccc(N4CCC(CN5CCC(c6ccc7c(c6)CN([C@H]6CCC(=O)NC6=O)C7=O)CC5)CC4)cc3)cc12 [Compound 274]	DC50	> 500 nM

---

- Measurement target: BRAF G466V (Homo sapiens, UniProt P15056, G466V)
- Construct: expressed in transfected cells
- Sequence (P15056 whole entry G466V): as the sequence (P15056 whole entry V600E) above, with G466V, E600V counted along it
- Test summary: Cellular assay of target protein degradation, T-Rex 293 cells stably transfected with HA-BRAF G466V (HA immunofluorescence, high content imaging)
- Format: cell-based
- Experimental parameters: half maximal degradation, T-Rex 293 HA-BRAF G466V; read-out: BRaf G466V DC50
Listed compounds paired with reported DC50

Compound	Measurement target	DC50
O=C1CCC(N2Cc3cc(C(O)CN4CCN(c5ccc(-c6cnc7[nH]cc(C(=O)c8c(F)ccc(NS(=O)(=O)N9CC[C@@H](F)C9)c8F)c7c6)cc5)CC4)ccc3C2=O)C(=O)N1 (stereo partly drawn)	BRAF G466V (Homo sapiens, UniProt P15056, G466V)	1 to 10 nM
O=C1CCC(NC(=O)c2ccc(N3CCN(CCN4CCN(c5ccc(-c6cnc7[nH]cc(C(=O)c8c(F)ccc(NS(=O)(=O)N9CC[C@@H](F)C9)c8F)c7c6)cc5)CC4)CC3)cc2F)C(=O)N1 (stereo partly drawn)	BRAF G466V (Homo sapiens, UniProt P15056, G466V)	< 1 nM
O=C1CC[C@@H](NC(=O)c2ccc(C3CCN(CC4CCN(c5ccc(-c6cnc7[nH]cc(C(=O)c8c(F)ccc(NS(=O)(=O)N9CC[C@@H](F)C9)c8F)c7c6)cc5)CC4)CC3)cc2F)C(=O)N1	BRAF G466V (Homo sapiens, UniProt P15056, G466V)	1 to 10 nM
O=C1CCC(N2Cc3cc(C4CCN(CCC5CCN(c6ccc(-c7cnc8[nH]cc(C(=O)c9c(F)ccc(NS(=O)(=O)N%10CC[C@@H](F)C%10)c9F)c8c7)cc6)CC5)CC4)ccc3C2=O)C(=O)N1 (stereo partly drawn)	BRAF G466V (Homo sapiens, UniProt P15056, G466V)	1 to 10 nM
O=C1CCC(N2Cc3cc(C4CCN(CC[C@@H]5CCN(c6ccc(-c7cnc8[nH]cc(C(=O)c9c(F)ccc(NS(=O)(=O)N%10CC[C@@H](F)C%10)c9F)c8c7)cc6)C5)CC4)ccc3C2=O)C(=O)N1 (stereo partly drawn)	BRAF G466V (Homo sapiens, UniProt P15056, G466V)	1 to 10 nM
O=C1CCC(N2Cc3cc(N4CC5(CCN(CC#Cc6ccc(-c7cnc8[nH]cc(C(=O)c9c(F)ccc(NS(=O)(=O)N%10CC[C@@H](F)C%10)c9F)c8c7)cc6)C5)C4)ccc3C2=O)C(=O)N1 (stereo partly drawn)	BRAF G466V (Homo sapiens, UniProt P15056, G466V)	1 to 10 nM
O=C1CCN(c2ccc(N3CCN(CCc4ccc(-c5cnc6[nH]cc(C(=O)c7c(F)ccc(NS(=O)(=O)N8CC[C@@H](F)C8)c7F)c6c5)cc4)CC3)cc2F)C(=O)N1	BRAF G466V (Homo sapiens, UniProt P15056, G466V)	> 30 nM
O=C1CCC(N2Cc3cc(N4CC5(CN(CCOc6ccc(-c7cnc8[nH]cc(C(=O)c9c(F)ccc(NS(=O)(=O)N%10CC[C@@H](F)C%10)c9F)c8c7)cn6)C5)C4)ccc3C2=O)C(=O)N1 (stereo partly drawn)	BRAF G466V (Homo sapiens, UniProt P15056, G466V)	1 to 10 nM
COc1cc(N2CC3(C2)CN(CC2CCN(c4ccc(-c5cnc6[nH]cc(C(=O)c7c(F)ccc(NS(=O)(=O)N8CC[C@@H](F)C8)c7F)c6c5)cc4)CC2)[C@@H]3C)cc2c1C(=O)N(C1CCC(=O)NC1=O)C2 (stereo partly drawn)	BRAF G466V (Homo sapiens, UniProt P15056, G466V)	< 1 nM
O=C1CCC(N2Cc3cc(N4CCC(CN5CCN(C6(c7ncc(-c8cnc9[nH]cc(C(=O)c%10c(F)ccc(NS(=O)(=O)N%11CC[C@@H](F)C%11)c%10F)c9c8)cn7)CC6)CC5)CC4)ccc3C2=O)C(=O)N1 (stereo partly drawn)	BRAF G466V (Homo sapiens, UniProt P15056, G466V)	< 1 nM
COc1ccc(NS(=O)(=O)N2CC[C@@H](F)C2)c(F)c1C(=O)c1c[nH]c2ncc(-c3ccc(N4CCC(CN5CCC(c6ccc7c(c6)CN([C@H]6CCC(=O)NC6=O)C7=O)CC5)CC4)cc3)cc12	BRAF G466V (Homo sapiens, UniProt P15056, G466V)	1 to 10 nM
O=C1CC[C@@H](N2Cc3cc([C@H](O)CCN4CCC(c5ccc(-c6cnc7[nH]cc(C(=O)c8c(F)ccc(NS(=O)(=O)N9CC[C@@H](F)C9)c8F)c7c6)cc5)CC4)ccc3C2=O)C(=O)N1	BRAF G466V (Homo sapiens, UniProt P15056, G466V)	1 to 10 nM
O=C1CCC(N2Cc3cc(C4CCN(C[C@H](O)Cc5ccc(-c6cnc7[nH]cc(C(=O)c8c(F)ccc(NS(=O)(=O)N9CC[C@@H](F)C9)c8F)c7c6)cc5)CC4)ccc3C2=O)C(=O)N1 (stereo partly drawn)	BRAF G466V (Homo sapiens, UniProt P15056, G466V)	1 to 10 nM
O=C1CCC(N2Cc3cc(CCCCN4CCC(c5ccc(-c6cnc7[nH]cc(C(=O)c8c(F)ccc(NS(=O)(=O)N9CC[C@@H](F)C9)c8F)c7c6)cc5)CC4)ccc3C2=O)C(=O)N1 (stereo partly drawn)	BRAF G466V (Homo sapiens, UniProt P15056, G466V)	1 to 10 nM
O=C1CC[C@H](N2Cc3cc(OC[C@H](O)CN4CC5(C4)CN(c4ccc(-c6cnc7[nH]cc(C(=O)c8c(F)ccc(NS(=O)(=O)N9CC[C@@H](F)C9)c8F)c7c6)cc4)C5)ccc3C2=O)C(=O)N1	BRAF G466V (Homo sapiens, UniProt P15056, G466V)	1 to 10 nM
O=C1CC[C@H](N2Cc3cc(C[C@H](O)CN4CC5(C4)CN(c4ccc(-c6cnc7[nH]cc(C(=O)c8c(F)ccc(NS(=O)(=O)N9CC[C@@H](F)C9)c8F)c7c6)cc4)C5)ccc3C2=O)C(=O)N1	BRAF G466V (Homo sapiens, UniProt P15056, G466V)	1 to 10 nM
O=C1CC[C@@H](N2Cc3cc([C@@H](O)CCN4CCC(c5ccc(-c6cnc7[nH]cc(C(=O)c8c(F)ccc(NS(=O)(=O)N9CC[C@@H](F)C9)c8F)c7c6)cc5)CC4)ccc3C2=O)C(=O)N1	BRAF G466V (Homo sapiens, UniProt P15056, G466V)	1 to 10 nM
O=C1CC[C@H](NC(=O)N2CCCc3c(C4CCN(CC5CCN(c6ccc(-c7cnc8[nH]cc(C(=O)c9c(F)ccc(NS(=O)(=O)N%10CC[C@@H](F)C%10)c9F)c8c7)cc6)CC5)CC4)ccnc32)C(=O)N1	BRAF G466V (Homo sapiens, UniProt P15056, G466V)	1 to 10 nM
